Test: Drug concentration in plasma of C57 mouse at 20 mg/kg, ip measured after 1 hr by LC/MS-MS analysis
Assay type: ADME, organism-based
Measured concentration at 1 h by item

structure.as.smiles: O=C(NO)c1ccc(CN2CCCSc3ccccc32)cc1
scale.unit: ng/mL
concentration at 1 h: 96.1
--
structure.as.smiles: O=C(NO)c1ccc(CN2CCCc3cc(Cl)ccc32)cc1
scale.unit: ng/mL
concentration at 1 h: 256
--
structure.as.smiles: O=C(NO)c1ccc(CN2CCCOc3ccccc32)cc1
scale.unit: ng/mL
concentration at 1 h: 59.4
--
structure.as.smiles: COc1ccc2c(c1)N(Cc1ccc(C(=O)NO)cc1)CCCC2
scale.unit: ng/mL
concentration at 1 h: 526

====

Assay: in vivo
Conditions: C57, mouse, brain/plasma, ip, 20 mg/kg
Measured Kp at 1 h by item

structure.as.smiles: O=C(NO)c1ccc(CN2CCCOc3ccccc32)cc1
Kp at 1 h: 1.98
//
structure.as.smiles: COc1ccc2c(c1)N(Cc1ccc(C(=O)NO)cc1)CCCC2
Kp at 1 h: 1.85
//
structure.as.smiles: O=C(NO)c1ccc(CN2CCCSc3ccccc32)cc1
Kp at 1 h: 2.3

====

Measured IC50 by item
Target: Protein deacetylase HDAC6 (Homo sapiens)
Sequence (Q9UBN7 whole entry): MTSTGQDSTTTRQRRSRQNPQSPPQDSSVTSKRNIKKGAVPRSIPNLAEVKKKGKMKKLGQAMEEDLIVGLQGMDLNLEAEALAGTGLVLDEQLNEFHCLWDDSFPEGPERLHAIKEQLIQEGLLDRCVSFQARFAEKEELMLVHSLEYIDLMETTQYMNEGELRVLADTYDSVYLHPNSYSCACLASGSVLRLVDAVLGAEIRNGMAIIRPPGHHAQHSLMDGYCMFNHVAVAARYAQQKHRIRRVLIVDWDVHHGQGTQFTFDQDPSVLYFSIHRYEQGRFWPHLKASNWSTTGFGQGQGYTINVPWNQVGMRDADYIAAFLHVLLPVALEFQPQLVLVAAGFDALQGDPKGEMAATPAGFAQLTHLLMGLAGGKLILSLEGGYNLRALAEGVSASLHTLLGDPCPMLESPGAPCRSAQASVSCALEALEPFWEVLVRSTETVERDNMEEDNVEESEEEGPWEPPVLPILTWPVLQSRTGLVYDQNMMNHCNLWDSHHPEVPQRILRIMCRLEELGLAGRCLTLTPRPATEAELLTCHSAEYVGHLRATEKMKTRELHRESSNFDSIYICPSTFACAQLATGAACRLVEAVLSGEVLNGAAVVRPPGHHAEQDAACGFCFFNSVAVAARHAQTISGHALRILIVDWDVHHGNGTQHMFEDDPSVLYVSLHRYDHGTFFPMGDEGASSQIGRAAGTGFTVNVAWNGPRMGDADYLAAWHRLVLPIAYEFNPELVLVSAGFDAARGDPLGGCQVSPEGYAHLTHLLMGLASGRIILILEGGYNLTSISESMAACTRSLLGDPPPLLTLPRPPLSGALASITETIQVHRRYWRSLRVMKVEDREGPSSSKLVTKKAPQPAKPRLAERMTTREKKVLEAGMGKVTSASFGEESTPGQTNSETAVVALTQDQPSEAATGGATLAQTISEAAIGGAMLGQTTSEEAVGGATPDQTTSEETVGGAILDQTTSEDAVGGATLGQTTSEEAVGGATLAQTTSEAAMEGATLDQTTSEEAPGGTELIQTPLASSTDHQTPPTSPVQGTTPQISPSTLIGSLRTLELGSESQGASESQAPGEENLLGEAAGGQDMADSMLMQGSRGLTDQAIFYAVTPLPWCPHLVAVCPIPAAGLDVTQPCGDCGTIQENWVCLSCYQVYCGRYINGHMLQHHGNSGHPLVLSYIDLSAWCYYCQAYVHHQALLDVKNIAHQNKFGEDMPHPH
property.measured: IC50

compound: Cc1ccc2c(c1)N(Cc1ccc(C(=O)NO)cc1)CCCC2
result: 12 nM
--
compound: O=C(NO)c1ccc(CN2CCCCc3ccccc32)cc1
result: 6.4 nM
--
compound: O=C(NO)c1ccc(CN2CCC[S+]([O-])c3ccccc32)cc1 (stereo not drawn)
result: 13 nM
